Test system: DU-145 prostate
Assay Protocol: NCI tumour cell line growth inhibition, 48 h
Let's look at some compounds and their measured GI50.

{"columns": ["Compound", "GI50"],
 "data": [
  ["COc1cc2c3c(n(CCCNCCCN)c(=O)c2cc1OC)-c1cc2c(cc1C3=O)OCO2", "3080 nM"],
  ["CCN(CC)CCCCNc1c2ccc(Cl)cc2nc2ccc(OC)cc12", "340 nM"],
  ["O=C(/C=C/C12c3ccccc3C(c3ccccc31)C1C(=O)NC(=O)C12)c1ccccc1 (stereo not drawn)", "1640 nM"],
  ["COc1cc(CNc2oc(-c3ccccc3)c(-c3ccccc3)c2C#N)cc(CN2CCN(C)CC2)c1O", "1990 nM"],
  ["CC1SC(c2ccc(Cl)cc2Cl)N(NC(=O)C(O)c2ccccc2)C1=O (stereo not drawn)", "> 100000 nM"],
  ["Cc1cc(O)c(-c2ccc([C@@H](C)CN(C)C)cc2)c2c1[nH]c(=O)c1sccc12", "528 nM"],
  ["C[N+](C)=c1ccc2nc3c(cc(NCCCNc4cc5oc6cc(=[N+](C)C)ccc-6nc5c5ccccc45)c4ccccc43)oc-2c1", "1530 nM"],
  ["CCOC(=O)C1=C(C)NC(c2ccco2)=C(C#N)C1c1cccc([N+](=O)[O-])c1 (stereo not drawn)", "31.6 nM"],
  ["CC(C)c1ccc(NC(=O)Cc2ccc(Nc3ncnc4cc(-c5cnn(CCN(C)C)c5)ccc34)cc2)cc1", "1460 nM"],
  ["O=C1N=C(Nc2nc(-c3csc(NC4=NC(=O)/C(=C\\c5ccccc5)S4)n3)cs2)S/C1=C/c1ccccc1", "16800 nM"],
  ["O=C1c2cc3c(cc2-c2c1c1ccc(Cl)cc1c(=O)n2CCCn1ccnc1)OCO3", "< 10 nM"],
  ["CC(C)(C)OC(=O)N[C@@H](Cc1ccccc1)C(=O)N(Cc1ccccc1)C1(C(=O)NCc2ccccc2)CCN(Cc2ccccc2)CC1", "5380 nM"],
  ["N#CC1=C(N)NC(=O)NC12Nc1ccccc1N2", "> 100000 nM"]
]}

---

Let's look at some molecules and their measured TGI.
Tested on: SN12C renal
Assay Protocol: NCI tumour cell line growth inhibition, 48 h
Measured Endpoint: TGI (µM)

{"columns": ["Molecule", "Measured Endpoint", "Sign", "Experimental Result"],
 "data": [
  ["c1ccc(OC2=NC3=S(S2)SC(Oc2ccccc2)=N3)cc1", "TGI", "=", 40.8],
  ["Cc1cc(O)c(-c2ccc([C@@H](C)CN(C)C)cc2)c2c1[nH]c(=O)c1sccc12", "TGI", "=", 20.7],
  ["COC(=O)CC[C@]12C[C@]13CC[C@]1(C)C4C(C)C[C@]5(CC(C)C(=O)O5)OC4CC1(C)C3CCC2C(C)(C)O (stereo not given in full)", "TGI", ">", 100],
  ["COc1ccc(C(=O)/C=C/SC(=NC#N)SC)cc1", "TGI", "=", 75.2],
  ["Cc1c(C(=O)NNc2ccccc2)n2c(=S)[nH]nc2c2ccccc12", "TGI", ">", 100]
]}

---

Tested on: PC-3 prostate
Assay Protocol: NCI tumour cell line growth inhibition, 48 h

{"columns": ["Molecule", "GI50"],
 "data": [
  ["N#Cc1cc(S(=O)(=O)Nc2nc3ccccc3o2)c(SCc2ccccc2)cc1Cl", "21.4 µM"],
  ["CCC1=C(CC2NCCc3ccccc32)CC2c3cc(OC)c(OC)cc3CCN2C1 (stereo not given)", "3.48 µM"],
  ["CCCCn1c(=O)c(/C=C/C(=O)/C=C/c2cc3ccccc3n(CCCC)c2=O)cc2ccccc21", "1.79 µM"],
  ["CCN(Cc1c(F)cccc1Cl)c1ccc(CO)c(Cl)c1", "12 µM"],
  ["Nc1cccc2c1C(=O)c1cccc(NC(=O)c3ccccc3)c1C2=O", "0.374 µM"]
]}

Where these numbers come from: PubChem BioAssay (NCI)
